assay: DPPH· scavenging assay; type: biochemical
recorded_metric: IC50 (µM)
Field: numeric (µM). Do not append units.

Need IC50, item COc1cc(-c2oc3cc(O)cc(O)c3c(=O)c2O[C@@H]2O[C@H](CO)[C@@H](O)[C@H](O)[C@H]2O)ccc1O [Compound 32, Isorhamnetin-3-O-glucoside] 2370
